Test system: 266295-075-R-J1-PDC spheroid viability;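 further: spheroids exposed to compounds for seven days before readout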
Test name: Anticancer human tumor 266295-075-R-J1-PDC patient-derived head and neck squamous carcinoma cell line growth inhibition [POLQ]
Experimental conditions: second compound 1 µM; first compound 0.316 µM; stronger effect = lower value; spheroids with HUVEC and MSC
Listed here are molecules together with their documented viability, T/C.

| Molecule | viability, T/C [%] |
| --- | --- |
| CNCc1ccc(-c2[nH]c3cc(F)cc4c3c2CCNC4=O)cc1 + Cc1cccc(N(C)C(=O)C2C(O)CCN2c2nc(C)cc(C(F)(F)F)c2C#N)c1 | 99.9 |
| COc1cccc2c1C(=O)c1c(O)c3c(c(O)c1C2=O)CC(O)(C(=O)CO)CC3OC1CC(N)C(O)C(C)O1 (stereo not drawn) + Nc1ccc(C#CCN(C(=O)Cc2ncc(C(F)(F)F)cc2C(F)(F)F)c2ccc(F)cc2)nn1 | 89.3 |
| COc1cccc(OCCCN)c1-c1cc(Nc2cnc(C#N)cn2)n[nH]1 + COC1C(OC(N)=O)C(O)C(Oc2ccc3c(O)c(NC(=O)c4ccc(O)c(CC=C(C)C)c4)c(=O)oc3c2C)OC1(C)C | 72 |
